Tested on: MS2 coat protein
procedure_details: apparent KD of MS2 coat protein; designed switch direction (-1 OFF switch, 1 ON switch): -1; higher = weaker reporter binding
measurement_context: input ligand: microRNA oligo, concentration not stated
Each entry below carries its recorded apparent KD of MS2 coat protein.
measured_endpoint: apparent KD of MS2 coat protein (nM)

• AAGAAGAAACAAGCUUUUUGCACGUCAUAUAGUGACGCAACAUGAGGAUCACCCAUGUAUAGGGUGGGAAAGGAUAG [JR_SV3TOV2_Sub047] (Eterna round: R96, puzzle: Sensor v3, turn-off variant 2) = 352
• ACAAGCUUAAAAGGUGAUAACAUGAGGAUCACCCAUGUUCGUCUUAUAAAAAUAAAAAUAAAAAAUAAAAAAUAAAA [Sensor V2: 61] (Eterna round: R96, puzzle: Sensor v2, turn-off variant) = 114
• AAAAAGUUAGGAUAUACAUGAGGAUCACCCAUGUACAUAUAUGGAGAAAAAAACAGUAGUAGAAGGGACAAAAA [EX2 Malc#12] (Eterna round: R96, puzzle: Exclusion 3) = 23.3
• UAUAUAUAGUAAGGAUAUGUAAUUAUUUUAUACACAGAAGGUACUGACAUGAGGAUCACCCAUGUUUUAGUGUGGGCAUGUAGA [JMF's solution 51] (Eterna round: R96, puzzle: Exclusion NG 1) = 47.1
• UCGCUCCGUGUAGGAUAUCGCCGUACGAUGCGGCGAGAAGGACAUGAGGAUCACCCAUGUAUGUUAUUAUCACGCGUGGCGCAA [Design 62] (Eterna round: R96, puzzle: Exclusion NG 1) = 11.3
